Numbers sourced from the supplement of paper PMC10567573.

# ASSAY: protein stability index of a GFP-peptide fusion (GPS, HEK-293T) (PSI 1-6); higher = more stable;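 also: 24-mer peptide tiles fused after GFP, lentivirally expressed, FACS-sorted into six equal bins by GFP/DsRed ratio, decoded by Illumina sequencing, PSI is the read-weighted mean bin number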
# CONDITION_DETAILS: treatment: MLN4924 1 uM, 8 h; c terminus: a fixed tail appended
Response key: true means protein stability index >= 3; false means protein stability index < 3.

| ORDERED_RESIDUES | CAT |
| --- | --- |
| LLFSLTQFSVVSVVAYLALAALSA [RTN1] | true |
| GSVPLPESTRELGELLGEARYYLV [KCTD13] | false |
| VIVWDGDTTRQVQRISCFQSTVKC [WDR41] | false |
| RTMAPEKLLKSMPILQGQIDALLE [SNAP91] | false |
| LAVLDWNQRAMDLYKALGAQDLTE [SAT2] | false |
| TILDIFRFALRFIRPDPRSRVTDP [FAF2] | false |

----------
# ASSAY: protein stability index of a GFP-peptide fusion (GPS, HEK-293T) (PSI 1-6); higher = more stable
# CONDITION_DETAILS: treatment: DMSO; c terminus: a fixed tail appended
MEASURED_PROPERTY: protein stability index

| ORDERED_RESIDUES | EXPERIMENTAL_RESULT |
| --- | --- |
| PAAAPEGDWARLLEQMGALAVRGS [ZBED3] | 3.62 |
| IEILPNVCYTACATLKGPDSHYGT [BTBD1] | 2.26 |
| AERYGLSGSDVLDNVAYARAFNTD [RAD51] | 3.99 |
| NKTQQVIHIIDFGLAKEYIDPETK [CSNK1G3] | 2.48 |
| YIMAFDIKSEDMLKILKPSIPLER [FBXO33] | 2.34 |
| LSRHSKGLQILGHTLRASMRELGL [KCNA4] | 2.25 |
| TLQELLARDTVQVELIPEKKGLFL [SNX8] | 2.47 |
| LLLLYFMQVIAIVLYLMMPIVNIS [PHTF1] | 3.15 |
| SKKEGKRQGPKEPPRKSGSFHSSG [PBXIP1] | 4.98 |
| AAAVLFRMSEDKPQDYKKRLSVEL [CTNNB1] | 2.62 |
| HSLEYIDLMETTQYMNEGELRVLA [HDAC6] | 2.79 |
| QAYKWSNKLQYHAGLASGLLNQQS [MED27] | 2.46 |
| VEGRHLYVLEFSDHPGIHEPLEPE [CPN1] | 3.04 |

----------
# ASSAY: protein stability index of a GFP-peptide fusion (GPS, HEK-293T) (PSI 1-6); higher = more stable
# CONDITION_DETAILS: treatment: DMSO; c terminus: a fixed tail appended
Response key: Yes means protein stability index >= 4; No means protein stability index < 4.

| ORDERED_RESIDUES | CAT |
| --- | --- |
| LTASTMEILLDFVYTETVHVTVEN [KLHL12] | No |
| ASLENSLEETKGRYCMQLSQIQGL [KRT16] | No |
| KLIDRLEKKDLKLEPPEEEIIEGN [NECAB1] | Yes |
| RELRKPEEPENGEPTAAATARRSK [PWWP2B] | Yes |
| NEIESRHRELLRLESRIRDVHELF [STX11] | No |
| SVYAWGGGLGTPLRLPMLNTEVVQ [NEK8] | No |
| EQQTMDNLEKQLICPICLEMFTKP [TRIM55] | No |
